test system: Escherichia coli; assay: Antibacterial activity against Escherichia coli 20411 clinical isolate incubated for 18 to 24 hrs by broth microdilution method; type: functional
Where a SMILES comes first, the peptide text is derived from it.
REPORTED PROPERTY: MIC (µM)

{"columns": ["MOLECULE", "VALUE MEASURED"],
 "data": [
  ["CC(C)C[C@H](NC(=O)[C@H](CCCNC(=N)N)NC(=O)[C@H](Cc1c[nH]c2ccccc12)NC(=O)[C@H](CCCNC(=N)N)NC(=O)[C@@H](NC(=O)[C@H](CCCCN)NC(=O)[C@H](Cc1c[nH]c2ccccc12)NC(=O)[C@H](CCCNC(=N)N)NC(=O)[C@H](CC(C)C)NC(=O)[C@H](CCCNC(=N)N)NC(=O)[C@@H](N)Cc1c[nH]c2ccccc12)[C@@H](C)O)C(=O)N[C@@H](CCCCN)C(N)=O (H-WRLRWKTRWRLK-NH2)", 2],
  ["CC(C)C[C@H](NC(=O)[C@H](CCCCN)NC(=O)[C@H](Cc1c[nH]c2ccccc12)NC(=O)[C@H](CCCCN)NC(=O)[C@H](CC(C)C)NC(=O)[C@H](CCCCN)NC(=O)[C@H](Cc1c[nH]c2ccccc12)NC(=O)[C@H](CCCCN)NC(=O)[C@H](CC(C)C)NC(=O)[C@H](CCCCN)NC(=O)[C@@H](N)Cc1c[nH]c2ccccc12)C(=O)N[C@@H](CCCCN)C(N)=O (H-WKLKWKLKWKLK-NH2)", 2],
  ["C[C@@H](O)[C@H](NC(=O)[C@H](CCCNC(=N)N)NC(=O)[C@H](Cc1c[nH]c2ccccc12)NC(=O)[C@H](CCCNC(=N)N)NC(=O)[C@@H](NC(=O)[C@H](CCCNC(=N)N)NC(=O)[C@H](Cc1c[nH]c2ccccc12)NC(=O)[C@H](CCCNC(=N)N)NC(=O)[C@@H](NC(=O)[C@H](CCCNC(=N)N)NC(=O)[C@@H](N)Cc1c[nH]c2ccccc12)[C@@H](C)O)[C@@H](C)O)C(=O)N[C@@H](CCCNC(=N)N)C(N)=O (H-WRTRWRTRWRTR-NH2)", 2]
]}

----------
Listed below: MHC values for each entry.
system: Erythrocyte; assay: Haemolytic activity in human erythrocytes assessed as lowest concentration causing 5% hemolysis after 1 hr; assay type: ADME, cell-based
Where a SMILES comes first, the peptide text is derived from it.

{"columns": ["MOLECULE", "EXPERIMENTAL SYSTEM", "MHC"],
 "data": [
  ["CC(C)C[C@H](NC(=O)[C@H](CCCNC(=N)N)NC(=O)[C@@H](NC(=O)[C@H](CCCNC(=N)N)NC(=O)[C@@H](NC(=O)[C@H](CCCCN)NC(=O)[C@@H](NC(=O)[C@H](CCCNC(=N)N)NC(=O)[C@H](CC(C)C)NC(=O)[C@H](CCCNC(=N)N)NC(=O)[C@@H](N)C(C)C)C(C)C)[C@@H](C)O)C(C)C)C(=O)N[C@@H](CCCCN)C(N)=O (H-VRLRVKTRVRLK-NH2)", "Erythrocyte", "> 128 µM"],
  ["CC(C)C[C@H](NC(=O)[C@H](CCCNC(=N)N)NC(=O)[C@H](Cc1c[nH]c2ccccc12)NC(=O)[C@H](CCCNC(=N)N)NC(=O)[C@@H](NC(=O)[C@H](CCCCN)NC(=O)[C@H](Cc1c[nH]c2ccccc12)NC(=O)[C@H](CCCNC(=N)N)NC(=O)[C@H](CC(C)C)NC(=O)[C@H](CCCNC(=N)N)NC(=O)[C@@H](N)Cc1c[nH]c2ccccc12)[C@@H](C)O)C(=O)N[C@@H](CCCCN)C(N)=O (H-WRLRWKTRWRLK-NH2)", "Erythrocyte", "> 128 µM"],
  ["C[C@@H](O)[C@H](NC(=O)[C@H](CCCCN)NC(=O)[C@H](Cc1c[nH]c2ccccc12)NC(=O)[C@H](CCCNC(=N)N)NC(=O)[C@H](Cc1ccccc1)NC(=O)[C@H](CCCNC(=N)N)NC(=O)[C@@H](N)Cc1c[nH]c2ccccc12)C(=O)N[C@@H](CCCNC(=N)N)C(=O)N[C@@H](Cc1c[nH]c2ccccc12)C(=O)N[C@@H](CCCNC(=N)N)C(=O)N[C@@H](Cc1ccccc1)C(=O)N[C@@H](CCCCN)C(N)=O (H-WRFRWKTRWRFK-NH2)", "Erythrocyte", "> 128 µM"]
]}
